The reported numbers originate from the supplement of paper PMC12669032.

tested on: Coprococcus comes; assay: growth AUC relative to DMSO control (median of replicates) (fraction); higher = more growth (less inhibition), active = hit call of the paper; conditions: 20 µM; 24 h
MEASURE NAME: growth AUC
// no unit, no text: just the number

Value sought: growth AUC, system Coprococcus comes, item CC1(C)CN=C(NN=C(/C=C/c2ccc(C(F)(F)F)cc2)/C=C/c2ccc(C(F)(F)F)cc2)NC1 . Result: 1

Value sought: growth AUC, system Coprococcus comes, item COC(C)(C)CCCC(C)C/C=C/C(C)=C/C(=O)OC(C)C (stereo unspecified) . Result: 1.01

Value sought: growth AUC, system Coprococcus comes, item CC(C)(C)C(O)C(Cc1ccc(Cl)cc1Cl)n1cncn1 (mixture of isomers) . Result: 0.982

Value sought: growth AUC, system Coprococcus comes, item CC1(C)C(/C=C(\Cl)C(F)(F)F)C1C(=O)OC(C#N)c1cccc(Oc2ccccc2)c1 (stereo unspecified) . Result: 1.01

Value sought: growth AUC, system Coprococcus comes, item CCCOCCN(C(=O)CCl)c1c(CC)cccc1CC . Result: 0.988

Value sought: growth AUC, system Coprococcus comes, item COP(=S)(OC)Oc1cc(Cl)c(Br)cc1Cl . Result: 0.982

###

tested on: Bacteroides stercoris; assay: growth AUC relative to DMSO control (median of replicates) (fraction); higher = more growth (less inhibition), active = hit call of the paper; settings: 20 µM; 24 h
MEASURE NAME: growth AUC
// no unit, no text: just the number

Value sought: growth AUC, system Bacteroides stercoris, item C#CCN1C(=O)COc2cc(F)c(N3C(=O)C4=C(CCCC4)C3=O)cc21 . Result: 1

Value sought: growth AUC, system Bacteroides stercoris, item CCOP(=O)(NC(C)C)Oc1ccc(S(C)=O)c(C)c1 (stereo not drawn) . Result: 1.02

Value sought: growth AUC, system Bacteroides stercoris, item c1cc2ccc3cccc4ccc(c1)c2c34 . Result: 1.01

Value sought: growth AUC, system Bacteroides stercoris, item Cc1cc(Cl)ccc1OC(C)C(=O)O (stereo not drawn) . Result: 1.01

Value sought: growth AUC, system Bacteroides stercoris, item COP(=O)(OC)SCn1c(=O)oc2cc(Cl)cnc21 . Result: 1.01

Value sought: growth AUC, system Bacteroides stercoris, item Cc1cc(Cl)ccc1OCC(=O)O.O.[Na] . Result: 1.02

Value sought: growth AUC, system Bacteroides stercoris, item O=C(O)COc1cc(Cl)c(Cl)cc1Cl . Result: 0.978

Value sought: growth AUC, system Bacteroides stercoris, item CNC(=O)/C(=N/OC)c1ccccc1Oc1ccccc1 . Result: 1.02

Value sought: growth AUC, system Bacteroides stercoris, item CCCCOC(=O)[C@@H](C)Oc1ccc(Oc2ccc(C#N)cc2F)cc1 . Result: 0.973

Value sought: growth AUC, system Bacteroides stercoris, item CO/N=C(/C(=O)OC)c1ccccc1COc1ccccc1C . Result: 0.993

Value sought: growth AUC, system Bacteroides stercoris, item Clc1ccccc1Cl . Result: 0.991

Value sought: growth AUC, system Bacteroides stercoris, item CO/N=C(/C(=O)OC)c1ccccc1CO/N=C(\C)c1cccc(C(F)(F)F)c1 . Result: 0.993

Value sought: growth AUC, system Bacteroides stercoris, item N#Cc1c(Cl)cccc1Cl . Result: 0.989

###

Please respond with reported growth AUC for every item in the list.
tested on: Parabacteroides merdae; assay: growth AUC relative to DMSO control (median of replicates) (fraction); higher = more growth (less inhibition), active = hit call of the paper; conditions: 20 µM; 24 h
// no unit, no text: just the number

Value sought: growth AUC, system Parabacteroides merdae, item c1ccc2c(c1)cc1ccc3cccc4ccc2c1c34 . Result: 0.974

Value sought: growth AUC, system Parabacteroides merdae, item CNC(=S)S . Result: 1.05

Value sought: growth AUC, system Parabacteroides merdae, item COCC(=O)N(c1c(C)cccc1C)[C@@H](C)C(=O)OC . Result: 0.996

Value sought: growth AUC, system Parabacteroides merdae, item CCCCN(CCCC)SN(C)C(=O)Oc1cccc2c1OC(C)(C)C2 . Result: 0.951

Value sought: growth AUC, system Parabacteroides merdae, item Oc1ccc(Cl)cc1 . Result: 0.988

Value sought: growth AUC, system Parabacteroides merdae, item CS/C(C)=N/OC(=O)N(C)SN(C)C(=O)O/N=C(\C)SC . Result: 1.03

Value sought: growth AUC, system Parabacteroides merdae, item Oc1ccccc1Cl . Result: 1

Value sought: growth AUC, system Parabacteroides merdae, item Cc1ccc2nc3sc(=O)sc3nc2c1 . Result: 0.954

Value sought: growth AUC, system Parabacteroides merdae, item COc1cc(OC)nc(Oc2cccc(Oc3nc(OC)cc(OC)n3)c2C(=O)[O-])n1.[Na+] . Result: 1.01

Value sought: growth AUC, system Parabacteroides merdae, item c1coc(-c2nc3ccccc3[nH]2)c1 . Result: 0.961

Value sought: growth AUC, system Parabacteroides merdae, item COC(=O)C1(O)c2ccccc2-c2ccccc21 . Result: 0.993

Value sought: growth AUC, system Parabacteroides merdae, item OC[C@@H](O)[C@H]1O[C@@H]2O[C@H](C(Cl)(Cl)Cl)O[C@@H]2[C@H]1O (mixture of isomers) . Result: 0.999

Value sought: growth AUC, system Parabacteroides merdae, item CCOP(=S)(OCC)SCSP(=S)(OCC)OCC . Result: 0.997

Value sought: growth AUC, system Parabacteroides merdae, item O=S(=O)(Oc1ccc(Cl)cc1)c1ccc(Cl)cc1 . Result: 0.945

Value sought: growth AUC, system Parabacteroides merdae, item COP(=O)(OC)OC=C(Cl)Cl . Result: 1.01

Value sought: growth AUC, system Parabacteroides merdae, item O=C(Nc1ccccc1)Nc1ccnc(Cl)c1 . Result: 0.888

Value sought: growth AUC, system Parabacteroides merdae, item ClCC1C(CCl)C2(Cl)C(Cl)=C(Cl)C1(Cl)C2(Cl)Cl (centres undefined) . Result: 0.995

Value sought: growth AUC, system Parabacteroides merdae, item O=C(NC(=O)c1ccccc1Cl)Nc1ccc(OC(F)(F)F)cc1 . Result: 0.971

Value sought: growth AUC, system Parabacteroides merdae, item CC(C)[C@H](C(=O)O[C@H](C#N)c1cccc(Oc2ccccc2)c1)c1ccc(Cl)cc1 . Result: 1.01
